assaySystem: fms (Homo sapiens, UniProt P07333)
Sequence (P07333 582-910 limits assumed): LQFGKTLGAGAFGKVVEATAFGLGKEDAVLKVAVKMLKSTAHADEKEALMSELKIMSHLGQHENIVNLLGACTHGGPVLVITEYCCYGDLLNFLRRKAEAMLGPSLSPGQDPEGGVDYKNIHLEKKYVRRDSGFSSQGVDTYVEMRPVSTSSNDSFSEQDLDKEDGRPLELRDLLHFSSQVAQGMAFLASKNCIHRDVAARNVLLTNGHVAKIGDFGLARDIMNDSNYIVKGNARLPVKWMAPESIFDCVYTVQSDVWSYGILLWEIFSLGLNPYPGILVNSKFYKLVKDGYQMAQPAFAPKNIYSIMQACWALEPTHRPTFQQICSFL
measurementNotes: fms kinase assay (ELISA or Alphascreen)
Format: biochemical
experimentalContext: read-out: fms inhibition of enzyme activity
Listing: inhibition at 10 µM of selected compounds

As a guide, the following entries are already answered.
# compound O=C(NCc1ccncc1)c1cncc(-c2ccc(F)cc2)c1 ; its inhibition at 10 µM = < 50%

For reference, reported inhibition at 10 µM for CN1CCN(c2ccc(CNC(=O)c3cncc(-c4ccc(F)cc4)c3)cc2)CC1 stands at < 50%

Per the record, COc1cccc(-c2cncc(C(=O)Nc3cc(C)ccc3C)c2)c1 has inhibition at 10 µM of < 50%

Then this compound:
Value of measured inhibition at 10 µM for the entry COc1cc(-c2cncc(C(=O)Nc3ccccc3C)c2)cc(OC)c1OC : ≥ 50%
